# tested-system: Adenosine receptor A1 (Homo sapiens, UniProt P30542)
# Sequence (P30542 whole entry): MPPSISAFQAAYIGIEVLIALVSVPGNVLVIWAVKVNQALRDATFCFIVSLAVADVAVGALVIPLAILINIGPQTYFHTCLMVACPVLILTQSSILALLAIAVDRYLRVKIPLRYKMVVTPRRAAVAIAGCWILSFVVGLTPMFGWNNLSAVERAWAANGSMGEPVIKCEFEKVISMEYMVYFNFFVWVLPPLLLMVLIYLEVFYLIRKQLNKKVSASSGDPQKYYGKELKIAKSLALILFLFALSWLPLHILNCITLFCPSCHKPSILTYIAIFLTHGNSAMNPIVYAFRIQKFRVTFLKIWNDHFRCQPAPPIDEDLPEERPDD
reported-metric: Ki (nM)
Answers are plain numbers, in nM.

Reference set (3 entries):
Nc1nc(Cl)nc2c1ncn2[C@@H]1O[C@H](CO)[C@@H](O)[C@H]1O ... 1.39
CNC(=O)c1cnn(-c2nc(N)c3ncn([C@@H]4O[C@H](CO)[C@@H](O)[C@H]4O)c3n2)c1 [REGADENOSON ANHYDROUS] ... 3770
Nc1nc(OCCc2ccc(Cl)cc2)nc2c1ncn2[C@@H]1O[C@H](CO)[C@@H](O)[C@H]1O ... 10000

Q: Name the reported Ki value associated with the compound `CCNC(=O)[C@H]1O[C@@H](n2cnc3c(N)nc(C#CC[C@H]4CC[C@H](C(=O)OC)CC4)nc32)[C@H](O)[C@@H]1O`
Result: 77

---

# tested-system: Adenosine receptor A2b (Homo sapiens)
# Sequence (P29275 whole entry): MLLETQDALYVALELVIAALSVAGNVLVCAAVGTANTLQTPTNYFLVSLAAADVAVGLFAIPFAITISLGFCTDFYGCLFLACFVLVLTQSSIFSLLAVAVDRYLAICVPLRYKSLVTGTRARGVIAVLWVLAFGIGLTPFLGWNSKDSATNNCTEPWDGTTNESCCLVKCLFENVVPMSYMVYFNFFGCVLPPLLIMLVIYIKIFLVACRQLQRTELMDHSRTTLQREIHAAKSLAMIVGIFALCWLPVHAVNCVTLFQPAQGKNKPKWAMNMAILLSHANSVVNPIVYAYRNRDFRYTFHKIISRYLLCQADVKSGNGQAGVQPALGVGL
reported-metric: EC50 (µM)
Numbers only, in µM.

Nc1nc(OCCc2ccc(Cl)cc2)nc2c1ncn2[C@@H]1O[C@H](CO)[C@@H](O)[C@H]1O [SONEDENOSON] ... 10

Next up:
Q: Name the reported EC50 value associated with the compound CNC(=O)c1cnn(-c2nc(N)c3ncn([C@@H]4O[C@H](CO)[C@@H](O)[C@H]4O)c3n2)c1 [REGADENOSON ANHYDROUS]
Result: 10

---

# tested-system: Adenosine receptor A1 (Homo sapiens)
reported-metric: Ki (µM)
Give bare numbers, in µM.

Reference set (4 entries):
CN(CCN1CCN(c2ccc(F)cc2F)CC1)c1cc2nc(-c3cccc(C#N)c3)nn2c(N)n1 ... 1.12
CN(C)CCn1ncc2c1nc(N)n1c(=O)n(Cc3cccc(Cl)c3)nc21 ... 1.4
COc1ccc(N2CCOCC2)c2sc(NC(=O)N3CCC(C)(O)CC3)nc12 ... 1.35
Cc1cnc2c(c1)CN(CCn1ncc3c1nc(N)n1nc(-c4ccco4)nc31)CC2 ... 0.358

For every item in the list below, what is its measured Ki?
1. CC(=O)CCc1nc(N)c2nc(-n3nccn3)n(C)c2n1
2. COc1cnc(N2CCOCC2)c2sc(NC(=O)c3ccc(F)cc3)nc12
3. CC1(C)CCCN(c2nnc(N)nc2-c2ccccc2)C1
4. CC(=O)Nc1cc(-n2cccn2)nc(-c2ccco2)n1
5. COc1ccc(C2CCOCC2)c2oc(NC(=O)c3ccnc(N4CCOCC4)c3)nc12

Result:
1. 0.192
2. 2.1
3. 10
4. 0.0102
5. 8.78

For every item in the list below, what is its measured Ki?
1. CC(O)CCc1nc(N)c2nc(-n3nccn3)n(C)c2n1 (stereo unspecified)
2. Cc1cc(C)n(-c2cc(NC(=O)COc3cccc(CN(C)C)c3)nc(-c3ccc(C)o3)n2)n1
3. CCCCc1nc(N)c2nc(-n3nccn3)n(C)c2n1

Result:
1. 0.024
2. 0.04
3. 0.0792

meta.source: ChEMBL document CHEMBL3259781
